Target: Gag-Pol polyprotein (Human immunodeficiency virus type 1 group M subtype B (isolate HXB2)) (UniProt P04585)
Assay: HIV-1 RT RNase H inhibitors, primary screen, biochemical, fluorescence (AID 565)
Settings: RT-RNase H RNA/DNA duplex cleavage, at 10 µM, active compounds read high
Out of some 65,000 compounds screened, about 1,200 (1.8%) were called active. What follows is part of a selection rich in actives, with near analogues and random picks from the rest.
Recorded inhibition values for a group of molecules are listed next.
measurement_label: inhibition (%)

>>> data_value("COCCNC(=S)c1ccc(OC)cc1")
88.3
>>> data_value("COc1ccc(N(Cc2cc3cc(OC)ccc3[nH]c2=O)S(C)(=O)=O)cc1")
-0.75
>>> data_value("O=C(Nc1ccc(Oc2ccccc2)cc1)c1ccco1")
-7.33
>>> data_value("COCCNC(=O)C(c1ccc(C)o1)N(Cc1ccccc1)C(=O)Cn1nnc2ccccc21 (configuration not stated)")
5.47
>>> data_value("COc1ccc(-c2nn3c(-c4ccccc4)nnc3s2)cc1OC")
-38.4
>>> data_value("CCOC(=O)CSC1=C(C#N)C(c2sccc2C)CC(=O)N1 (configuration not stated)")
-2.34
>>> data_value("CC12C(=O)N(n3cnnc3)C(=O)C1C1C=CC2C1 (configuration not stated)")
1.01
>>> data_value("COC(=O)c1cccc(NC(=O)CSc2nc(C)cc(=O)[nH]2)c1")
-4.06
>>> data_value("Cc1ccc2c(c1)sc1ncc(NC(=O)c3ccccc3)c(=O)n12")
68.4
>>> data_value("COCCNC(=O)COc1ccc(C)c(C)c1")
-5.41
>>> data_value("Fc1ccc(-c2ccc(-c3nn4c(-c5ccco5)nnc4s3)o2)cc1")
65.8
>>> data_value("CCCCC(=O)N1CC2(C)CN(C(=O)CCCC)CC(C)(C1)C2=O")
-4.52
>>> data_value("Cc1cc(Nc2ccccc2)n(C(=O)c2ccc(N)cc2)n1")
-17.6
>>> data_value("Cc1ccccc1NC(=O)c1ccccc1")
-3.87
>>> data_value("COC(=O)N(c1ccc(OC)cc1)P1(=S)OCCC(C)O1 (configuration not stated)")
94.7
>>> data_value("CC(Sc1nncn1C)C(=O)Nc1ccccc1-c1ccccc1 (configuration not stated)")
-1.62
>>> data_value("CCOC(=O)c1ccc(CS(=O)c2ccc(Cl)cc2)o1 (configuration not stated)")
-8.12
>>> data_value("CCCC(NS(=O)(=O)c1ccc(OC)cc1)C(=O)O (configuration not stated)")
-5.87
>>> data_value("Cc1ccc(S(=O)(=O)C2(S(=O)(=O)c3ccc(C)cc3)CCCC2)cc1")
-7.65
>>> data_value("CCOc1ccc2[nH]c(=O)c(CN(CCCO)C(C)=O)cc2c1")
84.7
>>> data_value("Cc1cnc(NC(=O)CSc2nnc(-c3ccc(Cl)cc3Cl)n2N)s1")
70.1
>>> data_value("O=C1c2cccnc2C(=O)N1Cc1cccs1")
-2.26
>>> data_value("COc1ccc(OCCCC(=O)Nc2nnc(C3CCCO3)s2)cc1 (configuration not stated)")
8.11
>>> data_value("COc1ccc(N2CCN(C(=O)CSc3nnc4ncccn34)CC2)cc1")
2.76
>>> data_value("CCC(=O)N(Cc1cc2cc(OC)ccc2[nH]c1=O)c1ccccc1C")
-2.05
>>> data_value("CCN(CC)CCCNC(=O)c1cc(-c2cccc(Cl)c2)on1")
-16
>>> data_value("Fc1ccc(-c2nnc3sc(-c4ccc5c(c4)OCO5)nn23)cc1")
66.3
>>> data_value("CCOCCCNC(=O)Cc1cc(=O)[nH]c(=O)[nH]1")
5.5
>>> data_value("CCOC(=O)c1sc(=S)n2c1[nH]c(=O)c1ccc(C(=O)OC)cc12")
93.6
>>> data_value("Cc1ccc(C(=O)COc2cccc(NC(=O)c3ccco3)c2)cc1")
9.47
>>> data_value("COc1ccc(OC)c2c(N)c(C#N)c(C(F)(F)C(F)(F)F)nc12")
-3.29
>>> data_value("CC1=C(C(=O)Nc2ccccc2)C(c2cccs2)C(C#N)=C(SCC#N)N1 (configuration not stated)")
55.5
>>> data_value("COC(=O)c1cc(S(=O)(=O)NC2CCN(Cc3ccccc3)CC2)cn1C")
-1.44
>>> data_value("COc1ccc(CCNC(=O)c2cc3sccc3n2C)cc1OC")
-5.6
>>> data_value("Cc1ccc(NC(=O)c2nc[nH]c2C(=O)N2CCCCC2)c(C(=O)c2ccccc2)c1")
2.94
>>> data_value("Cc1nc2nc(COc3ccccc3)[nH]n2c(=O)c1C")
-3.44
>>> data_value("Cc1ccc(Nc2nc(CSc3nnnn3-c3ccccc3)cc(=O)[nH]2)cc1")
2.45
>>> data_value("CN1CCc2c(sc3c2c(NCc2ccco2)nc2nnnn23)C1")
1.26
>>> data_value("Cc1cnc(NC(=O)CSc2nnc(-c3ccccc3)n2Cc2ccccc2)s1")
-0.4
>>> data_value("FC(F)(F)c1nnc2sc(-c3ccco3)nn12")
-2.16
>>> data_value("O=c1c2ccccc2nc(CSc2nnnn2-c2ccccc2)n1-c1ccccc1")
52
>>> data_value("CCn1c(=O)cc(O)c2ccccc21")
-0.16
>>> data_value("COc1ccc(NC(=O)c2ccc(OC)cc2)cc1")
2.87
>>> data_value("CCC(C)(C)NC(=O)C(c1cccn1C)N(Cc1ccc(C)cc1)C(=O)Cn1nnc2ccccc21 (configuration not stated)")
50.2
>>> data_value("COc1ccc(CCNc2ncnc3nc[nH]c23)cc1OC")
-5.66
>>> data_value("O=C(CCn1c(=S)[nH]c2ccccc2c1=O)NCCCN1CCCC1=O")
-8.03
>>> data_value("Cc1cc(C)n(C(=O)c2ccc(S(=O)(=O)N3CCCC3)cc2)n1")
-7.85

* * *

Molecular target: Gag-Pol polyprotein (Human immunodeficiency virus type 1 group M subtype B (isolate HXB2)) (UniProt P04585)
Assay: HIV-1 RT RNase H inhibitors, primary screen, biochemical, fluorescence (AID 565)
Settings: RT-RNase H RNA/DNA duplex cleavage, at 10 µM
About 1,200 (1.8%) of roughly 65,000 compounds were called active. Rule as the data show it: active = inhibition above about 50%; inactive = the rest. What follows is part of a selection rich in actives, with near analogues and random picks from the rest.
Labels: Y (active), N (inactive)

>>> qualitative_label("CCOc1cc(-c2noc(CCC(=O)N3CCOCC3)n2)ccc1OC")
"N"
>>> qualitative_label("COc1cc(C(=O)Nc2nccs2)cc(OC)c1OC")
"N"
>>> qualitative_label("COc1cc2c(cc1NC(=O)CN1CCN(S(=O)(=O)c3ccc(F)cc3)CC1)oc1ccccc12")
"Y"
>>> qualitative_label("N#Cc1c(NC(=O)CCCN2C(=O)c3ccccc3C2=O)oc(-c2ccccc2)c1-c1ccccc1")
"N"
>>> qualitative_label("COc1ccc(N2CCN(CCNC(=O)c3nnc(Cc4c(F)cccc4Cl)o3)CC2)cc1")
"N"
>>> qualitative_label("CCOc1ccccc1/C=c1\\sc2nc(-c3ccco3)nn2c1=O")
"N"
>>> qualitative_label("CN(c1ccccc1)c1ccc(/C=c2\\s/c(=C(/C#N)C(=O)C(C)(C)C)n(Cc3ccco3)c2=O)cc1")
"Y"
>>> qualitative_label("CN(C)Cc1c(O)ccc2occ(C(O)c3ccccc3)c12 (stereo unspecified)")
"N"
>>> qualitative_label("O=C(CCSCCc1ccccn1)Nc1nccs1")
"N"
>>> qualitative_label("O=c1nc2s/c(=C\\c3ccco3)c(=O)n2nc1Cc1ccccc1")
"N"
>>> qualitative_label("COc1ccc(OCC(=O)N2CCOCC2)cc1")
"N"

* * *

Target: Gag-Pol polyprotein (Human immunodeficiency virus type 1 group M subtype B (isolate HXB2))
Assay: HIV-1 RT RNase H inhibitors, primary screen, biochemical, fluorescence (AID 565)
Conditions: RT-RNase H RNA/DNA duplex cleavage, at 10 µM, active compounds read high
The whole screen tested about 65,000 compounds, of which about 1,200 (1.8%) were called active. This excerpt belongs to a sample that is enriched for actives.
Item-by-item account of inhibition
measurement_label: inhibition (%)

>>> data_value("CCCCCCn1c(SCC(=O)c2ccccc2)nc2c1c(=O)[nH]c(=O)n2C")
54.7
>>> data_value("CCCSc1nc2c(c(=O)[nH]c(=O)n2C)n1CCc1ccccc1")
-11.9
>>> data_value("Cc1nnc(SCCCn2c(N3CCCCC3)nc3c2c(=O)[nH]c(=O)n3C)s1")
-3.25
>>> data_value("CC(C)C1N=C2c3ccccc3N=C(SCC(=O)c3ccc(O)c(O)c3)N2C1=O (stereo not given)")
96.1
>>> data_value("CCC(C)Sc1nc2c(c(=O)[nH]c(=O)n2C)n1CC(O)COc1cccc2ccccc12 (stereo not given)")
76.5
>>> data_value("COc1ccc(N2C(=O)CN=C2Nc2cccc(C)c2C)cc1OC")
93.2
>>> data_value("CCOC(=O)Cn1c(CN(Cc2ccccc2)Cc2ccccc2)nc2c1c(=O)[nH]c(=O)n2C")
-4.21
>>> data_value("CCOC(=O)c1c(NC(=O)CSc2nnc(Cc3csc(N)n3)n2C)sc(C)c1C")
-19.7
>>> data_value("CN1CCN(c2nc3c(c(=O)[nH]c(=O)n3C)n2Cc2cccc3ccccc23)CC1")
-0.99
>>> data_value("O=C(CSC1=Nc2ccccc2C2=NC(c3ccccc3)C(=O)N12)NCC1CCCO1 (stereo not given)")
2.21
